target: DPP-IV (Homo sapiens); construct: purchased Enzyme Systems Products SPE-01; test: In vitro assay for dipeptidyl peptidase inhibition; format: biochemical; settings: at 300 nM; n-value given in brackets; read-out: DPP-IV Percent Inhibition at 300 nM
Counter-ions that a name gives are not always drawn.
assay metric: inhibition at 0.3 µM (%)

(a) N[C@H]1CN(c2cc(OCC(F)(F)C(F)F)ncn2)C[C@@H]1N1CCCCC1=O [Example 94, trifluoroacetate]
(b) COc1ccc2ncnc(N3C[C@H](N)[C@@H](N4CCCCC4=O)C3)c2c1 [Example 107]
Parameter check: reported inhibition at 0.3 µM is higher for which label, a or b ? API: response body contains the label of the selected item.
b

(P) CC(C)S(=O)(=O)c1ccc2c(N3C[C@H](N)[C@@H](N4CCCCC4=O)C3)ncnc2c1 [Example 138, trifluoroacetate]
(Q) N[C@H]1CN(c2cc(N3CCc4noc(C(F)(F)F)c4C3)ncn2)C[C@@H]1N1CCCCC1=O [Example 81, trifluoroacetate]
Parameter check: reported inhibition at 0.3 µM is higher for which label, P or Q ? API: response body contains the label of the selected item.
Q

----------
molecular target: DPP-IV (Homo sapiens); construct: purchased Enzyme Systems Products SPE-01; assay: In vitro assay for dipeptidyl peptidase inhibition; type: biochemical; settings: n-value given in brackets; read-out: DPP-IV IC50
pIC50: −log10 of the molar value. Where a name gives a salt, the structure may show the parent alone.
assay metric: pIC50

Observe how each entry below is paired with its result.
{"columns": ["compound", "pIC50"],
 "data": [
  ["N[C@H]1CN(c2ncnc(N3CCc4nocc4C3)n2)C[C@@H]1N1CCCCC1=O [Example 76, trifluoroacetate]", 7.63],
  ["CSc1nc(N2C[C@H](N)[C@@H](N3CCCCC3=O)C2)cc(N2CCC(F)(F)C2)n1", 7.13],
  ["CC(C)(C)c1nc(N2C[C@H](N)[C@@H](N3CCCCC3=O)C2)cc(N2CCC(F)(F)C2)n1", 6.08],
  ["Cc1ccc(C)c2c1CN(c1cc(N3C[C@H](N)[C@@H](N4CCCCC4=O)C3)ncn1)C2", 7.00],
  ["N[C@H]1CN(c2cc(N3CCc4nocc4C3)nc(C(F)(F)F)n2)C[C@@H]1N1CC(F)(F)CCC1=O", 7.47],
  ["N[C@H]1CN(c2ncnc(N3CCCCC3)n2)C[C@@H]1N1CCCCC1=O", 6.50]
]}

(a) N[C@H]1CN(c2ncnc(N3CC[C@H](F)C3)n2)C[C@@H]1N1CC(F)(F)CCC1=O
(b) N[C@H]1CN(c2ncnc3cc(F)ccc23)C[C@@H]1N1CCCCC1=O [Example 105, trifluoroacetate]
Given the listed items, does a or b have the lesser reported pIC50? API: response body contains the label of the selected item.
b
(b: 6.62, a: 7.32)

----------
molecular target: DPP-IV (Homo sapiens); construct: purchased Enzyme Systems Products SPE-01; test: In vitro assay for dipeptidyl peptidase inhibition; type: biochemical; details: n-value given in brackets; read-out: DPP-IV IC50
Counter-ions that a name gives are not always drawn.
assay metric: IC50 (nM)

Observe how each entry below is paired with its result.
{"columns": ["compound", "assay value"],
 "data": [
  ["N[C@H]1CN(c2ncnc(N3CCc4sccc4C3)n2)C[C@@H]1N1CCCCC1=O [Example 71]", 139],
  ["N[C@H]1CN(c2ncnc3cc(OC4CCCC4)ccc23)C[C@@H]1N1CCCCC1=O [Example 119]", 107]
]}

(1) N#CCCc1ccc2c(N3C[C@H](N)[C@@H](N4CCCCC4=O)C3)ncnc2c1 [Example 118]
(2) COc1ccc(-c2cc(N3C[C@H](N)[C@@H](N4CCCCC4=O)C3)ncn2)cc1 [Example 86, hydrochloride]
Given the listed items, does 1 or 2 have the lesser reported IC50? API: response body contains the label of the selected item.
2
(2: 55.3 nM, 1: 85.2 nM)

----------
target: DPP-IV (Homo sapiens); construct: purchased Enzyme Systems Products SPE-01; experiment: In vitro assay for dipeptidyl peptidase inhibition; format: biochemical; settings: at 300 nM; n-value given in brackets; read-out: DPP-IV Percent Inhibition at 300 nM
Structures can show the parent of a compound that is named as a salt.
assay metric: inhibition at 0.3 µM (%)

Observe how each entry below is paired with its result.
{"columns": ["molecule", "study target", "inhibition at 0.3 µM (%)"],
 "data": [
  ["CCS(=O)(=O)c1ccc2c(N3C[C@H](N)[C@@H](N4CCCCC4=O)C3)ncnc2c1 [Example 139]", "DPP-IV (Homo sapiens)", 33.5],
  ["Cn1nc(C(F)(F)F)c2c1CCN(c1ncnc(N3C[C@H](N)[C@@H](N4CCCCC4=O)C3)n1)C2 [Example 67]", "DPP-IV (Homo sapiens)", 17.9],
  ["N[C@H]1CN(c2cc(OCC(F)(F)F)ncn2)C[C@@H]1N1CCCCC1=O [Example 92, trifluoroacetate]", "DPP-IV (Homo sapiens)", 28.9]
]}

(I) CC(C)C(C)Oc1cc(N2C[C@H](N)[C@@H](N3CCCCC3=O)C2)ncn1 (some centres unmarked) [Example 95, trifluoroacetate]
(II) N[C@H]1CN(c2ncnc3cc(OS(=O)(=O)c4ccc(F)c(F)c4)ccc23)C[C@@H]1N1CCCCC1=O [Example 144]
(III) CC1(C)CN(c2ncnc(N3C[C@H](N)[C@@H](N4CCCCC4=O)C3)n2)CC1(C)C [Example 46]
Would you mind ranking these molecules by ascending inhibition at 0.3 µM? Answer by listing the labels in the requested order.
III, I, II
(III: 6.8%, I: 17.7%, II: 41%)

----------
target: DPP-IV (Homo sapiens, UniProt P27487); construct: purchased Enzyme Systems Products SPE-01; test: In vitro assay for dipeptidyl peptidase inhibition; assay type: biochemical; conditions: n-value given in brackets; read-out: DPP-IV IC50
Sequence (P27487 whole entry, species assumed): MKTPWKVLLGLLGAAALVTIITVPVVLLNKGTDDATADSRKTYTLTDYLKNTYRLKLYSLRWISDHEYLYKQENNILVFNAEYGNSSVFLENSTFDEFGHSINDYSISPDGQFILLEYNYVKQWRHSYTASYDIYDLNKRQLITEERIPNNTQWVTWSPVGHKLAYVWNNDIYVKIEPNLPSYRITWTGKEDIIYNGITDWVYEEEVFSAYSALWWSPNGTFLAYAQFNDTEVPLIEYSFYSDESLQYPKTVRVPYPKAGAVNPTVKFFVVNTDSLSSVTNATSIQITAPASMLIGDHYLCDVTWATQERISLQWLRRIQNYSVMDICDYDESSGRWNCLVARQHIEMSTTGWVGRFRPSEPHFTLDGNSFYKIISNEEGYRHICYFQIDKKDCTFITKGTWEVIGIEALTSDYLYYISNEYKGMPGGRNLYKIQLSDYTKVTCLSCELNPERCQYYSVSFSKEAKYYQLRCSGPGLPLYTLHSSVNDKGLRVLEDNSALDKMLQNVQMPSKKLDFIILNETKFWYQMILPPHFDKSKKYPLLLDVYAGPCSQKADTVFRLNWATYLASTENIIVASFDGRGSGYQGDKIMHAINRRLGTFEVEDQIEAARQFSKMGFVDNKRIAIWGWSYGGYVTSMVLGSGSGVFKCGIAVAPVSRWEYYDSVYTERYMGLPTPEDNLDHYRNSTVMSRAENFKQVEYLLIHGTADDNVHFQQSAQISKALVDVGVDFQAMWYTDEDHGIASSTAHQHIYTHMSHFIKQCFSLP
pIC50: −log10 of the molar value. Counter-ions that a name gives are not always drawn.
assay metric: pIC50

{"columns": ["compound", "pIC50"],
 "data": [
  ["CC(C)c1nc(N2C[C@H](N)[C@@H](N3CCCCC3=O)C2)cc(N2CCC(F)(F)C2)n1", 6.87],
  ["N[C@H]1CN(c2ncnc3c2ncn3C2CC2)C[C@@H]1N1CCCCC1=O [Example 150, hydrochloride]", 6.72],
  ["CS(=O)(=O)Oc1ccc2c(N3C[C@H](N)[C@@H](N4CCCCC4=O)C3)ncnc2c1", 6.89],
  ["CC(C)S(=O)(=O)Oc1ccc2c(N3C[C@H](N)[C@@H](N4CCCCC4=O)C3)ncnc2c1", 6.87]
]}

----------
target: DPP-IV (Homo sapiens); construct: purchased Enzyme Systems Products SPE-01; test: In vitro assay for dipeptidyl peptidase inhibition; assay type: biochemical; details: n-value given in brackets; read-out: DPP-IV IC50
pIC50: −log10 of the molar value. Structures can show the parent of a compound that is named as a salt.
assay metric: pIC50

Observe how each entry below is paired with its result.
{"columns": ["molecule", "study target", "pIC50"],
 "data": [
  ["N[C@H]1CN(c2cc(-c3ccccc3)ncn2)C[C@@H]1N1CCCCC1=O [Example 7, hydrochloride]", "DPP-IV (Homo sapiens)", 7.32],
  ["N[C@H]1CN(c2cc(N3CC(F)C3)ncn2)C[C@@H]1N1CCCC1=O", "DPP-IV (Homo sapiens)", 5.76],
  ["N[C@H]1CN(c2ncnc(N3CCC(F)(F)C3)c2F)C[C@@H]1N1CCCCC1=O", "DPP-IV (Homo sapiens)", 6.66]
]}

(A) N[C@H]1CN(c2ncnc3[nH]cnc23)C[C@@H]1N1CCCCC1=O [Example 148, hydrochloride]
(B) N[C@H]1CN(c2ncnc3cc(Sc4cccc(F)c4)ccc23)C[C@@H]1N1CCCCC1=O
(C) N[C@H]1CN(c2cc(NC3CC3)ncn2)C[C@@H]1N1CCCC1=O
(D) N[C@H]1CN(c2ncnc(N3CC[C@@H](O)C3)n2)C[C@@H]1N1CCCCC1=O
Put the entries in order of pIC50, starting with the largest number. Answer by listing the labels in the requested order.
B, D, A, C
(B: 7.22, D: 6.69, A: 6.38, C: 5.85)

(1) N[C@H]1CN(c2cc(Oc3cccc(F)c3)ncn2)C[C@@H]1N1CCCCC1=O
(2) N[C@H]1CN(c2cc(N3CCc4nocc4C3)nc(C(F)(F)F)n2)C[C@@H]1N1CCCCC1=O
Given the listed items, does 1 or 2 have the lesser reported pIC50? API: response body contains the label of the selected item.
1
(1: 6.50, 2: 7.40)

(1) COc1cc2c(cc1OC)CN(c1cc(N3C[C@H](N)[C@@H](N4CCCC4=O)C3)ncn1)CC2
(2) N[C@H]1CN(c2ncnc(N3CCc4nocc4C3)c2F)C[C@@H]1N1CCCCC1=O
(3) N[C@H]1CN(c2cc(N3CCc4cncnc4C3)ncn2)C[C@@H]1N1CCCC1=O
Put the entries in order of pIC50, starting with the largest number. Answer by listing the labels in the requested order.
2, 1, 3
(2: 7.21, 1: 5.90, 3: 5.70)

(A) N[C@H]1CN(c2cc(N3CCS(=O)(=O)CC3)ncn2)C[C@@H]1N1CCCC1=O
(B) N[C@H]1CN(c2cc(N3CCC(F)(F)C3)nc(C(F)(F)F)n2)C[C@@H]1N1CCCCC1=O
(C) N[C@H]1CN(c2ncnc3cc(Oc4ccccc4)ccc23)C[C@@H]1N1CCCCC1=O
Would you mind ranking these molecules by ascending pIC50? Answer by listing the labels in the requested order.
A, C, B
(A: 5.97, C: 7.14, B: 7.35)

Cited source: patent US7485641B2
